- MEASUREMENT_PROTOCOL: Pharmacokinetic profile evaluation in mice
- Type: in vivo, CD-1 mice
- REPORTED_CONDITIONS: CD-1; mouse, oral administration at 10 mg/kg, plasma
READOUT_LABEL: half-life (h)

CNC(=O)[C@H]1C[C@@H]1c1cc(Oc2ccc(C(F)(F)F)cc2)cc2cn(C)nc12 (single isomer, unassigned) [Example 34b]    2.2

I. CNS(=O)(=O)CCc1cc(Oc2ccc(C(F)(F)F)cc2)cc2cn(C)nc12 [Example 45]
II. Cn1cc2cc(Oc3ccc(C(F)(F)F)cc3)cc([C@H]3C[C@@H]3C(=O)N3CC(O)C3)c2n1 (single isomer, unassigned) [Example 58b]
III. Cn1cc2cc(-c3ccc(C(F)(F)F)cc3)cc(C3C[C@H]3C(=O)O)c2n1 (mixture of isomers) [Example 2]
Please produce an ascending ranking of these compounds based on half-life. # respond with the labels, arranged in the requested order
I, II, III

###

- SYSTEM: TEAD1 (Homo sapiens)
- Sequence (P28347 whole entry, species assumed): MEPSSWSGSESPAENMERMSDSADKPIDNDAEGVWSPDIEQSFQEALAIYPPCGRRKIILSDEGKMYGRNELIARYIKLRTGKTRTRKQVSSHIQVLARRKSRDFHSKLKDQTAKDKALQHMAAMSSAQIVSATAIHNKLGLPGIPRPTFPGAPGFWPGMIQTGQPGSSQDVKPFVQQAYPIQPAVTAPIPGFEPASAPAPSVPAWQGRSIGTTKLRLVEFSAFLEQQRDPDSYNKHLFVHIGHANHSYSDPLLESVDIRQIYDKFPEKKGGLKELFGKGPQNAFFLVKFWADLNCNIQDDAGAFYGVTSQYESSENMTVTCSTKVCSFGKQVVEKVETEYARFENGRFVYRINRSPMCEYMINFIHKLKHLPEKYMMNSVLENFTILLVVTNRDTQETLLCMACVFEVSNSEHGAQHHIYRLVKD
- MEASUREMENT_PROTOCOL: Thermal shift assay TEAD1
- Assay type: binding
- Experimental: Example B: Thermal Shift Assay 1) Prepare a fresh dilution of Protein Thermal Shift™ Dye (Applied Biosystems, 1000×) to 8× by […]. 2) To ensure the same DMSO concentration, the compounds were diluted as follows: Prepare 10 mM stock solution of compounds; The final DMSO concentration was 0.1% 10 μM: Diluting stock solution to 100 μM by using PBS. 1 μM: Diluting stock solution to 1 mM by using DMSO, then dilute to 10 μM by using PBS. […]
READOUT_LABEL: TEAD1 ΔTm (°C)

# annotated cases, reported TEAD1 ΔTm shown
Cn1cc2cc(Oc3ccc(C(F)(F)F)cc3)cc(C3C[C@H]3C(=O)N3CCC(O)CC3)c2n1 (single isomer, unassigned)    10.7
CNS(=O)(=O)[C@@H]1CC1c1cc(Oc2ccc(C(F)(F)F)cc2)cc2cn(C)nc12 (mixture of isomers)    7.5
Cn1cc2cc(Oc3ccc(C(F)(F)F)cc3)cc([C@H]3C[C@@H]3C(=O)N3CC4CC3CC4O)c2n1 (single isomer, unassigned) [Example 103b]    9.2

P. Cn1cc2cc(Oc3ccc(C(F)(F)F)cc3)cc([C@@H]3C[C@H]3C(=O)O)c2n1 (single isomer, unassigned) [Example 16a]
Q. Cn1cc2nc(Oc3ccc(C(F)(F)F)cc3)cc([C@H]3C[C@@H]3C(=O)N3CC(O)C3)c2n1 (single isomer, unassigned) [Example 108b]
R. Cn1cc2cc(Oc3ccc(C(F)(F)F)cc3)cc(C3C[C@H]3C(=O)N3CCS(=O)(=O)CC3)c2n1 (single isomer, unassigned)
// smallest TEAD1 ΔTm at index 0, largest at the end I would appreciate it if you listed the labels in the requested order.
R, Q, P

1. CNS(=O)(=O)[C@@H]1CC1c1cc(Oc2ccc(C(F)(F)F)cc2)cc2cccnc12 (mixture of isomers)
2. CNC(=O)[C@@H]1CC1c1cc(Oc2ccc(C(F)(F)F)cc2)cc2cn(C(F)F)nc12 (mixture of isomers)
Which entry shows the lesser value of TEAD1 ΔTm here, 1 or 2 ? Answer by quoting the chosen item's label.
1
(1: 5.5 °C, 2: 8.1 °C)

a. Cn1cc2cc(Oc3ccc(C(F)(F)F)cc3)cc(C3C[C@H]3C(=O)N3CC4CC3[C@H](O)[C@H]4O)c2n1 (single isomer, unassigned)
b. Cn1cc2cc(Oc3ccc(C(F)(F)F)cc3)cc(C3C[C@H]3C(=O)N3CC4(CC(O)C4)C3)c2n1 (single isomer, unassigned)
Lab note: record which item had the higher TEAD1 ΔTm, a or b . Answer by stating the label of the chosen item.
b
(b: 9.9 °C, a: 6.4 °C)

###

- SYSTEM: TEAD4 (Homo sapiens, UniProt Q15561)
- Sequence (Q15561 whole entry, species assumed): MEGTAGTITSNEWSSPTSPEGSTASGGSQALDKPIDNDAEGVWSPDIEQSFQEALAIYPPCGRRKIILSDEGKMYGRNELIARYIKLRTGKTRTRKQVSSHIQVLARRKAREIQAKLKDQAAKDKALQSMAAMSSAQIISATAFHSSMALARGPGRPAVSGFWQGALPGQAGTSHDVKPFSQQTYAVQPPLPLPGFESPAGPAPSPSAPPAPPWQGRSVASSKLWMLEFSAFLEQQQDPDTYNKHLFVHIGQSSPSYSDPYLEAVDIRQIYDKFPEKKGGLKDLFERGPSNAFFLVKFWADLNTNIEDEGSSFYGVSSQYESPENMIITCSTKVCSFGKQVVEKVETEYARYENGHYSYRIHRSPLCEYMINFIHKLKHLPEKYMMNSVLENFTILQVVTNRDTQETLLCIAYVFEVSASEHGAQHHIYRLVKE
- MEASUREMENT_PROTOCOL: Thermal shift assay TEAD4
- Type: binding
READOUT_LABEL: TEAD4 ΔTm (°C)

Solved cases below.
CNC(=O)[C@H]1C[C@@H]1c1cc(Oc2ccc(C(F)(F)F)cc2)cc2cn(C)nc12 (single isomer, unassigned) [Example 34b]    11.3
Cn1cc2cc(Oc3ccc(C(F)(F)F)cc3)cc([C@@H]3C[C@H]3C(=O)N3CC[C@H](O)[C@@H](O)C3)c2n1 (single isomer, unassigned) [Example 75a]    11.3
CNC(=O)[C@@H]1C[C@H]1c1cc(Oc2ccc(C(F)(F)F)cc2)cc2c1NCCC2 (racemic)    2.9
O=C(O)[C@@H]1CC1c1cc(Oc2ccc(C(F)(F)F)cc2)cn2ccnc12 (mixture of isomers)    3.6
CCNC(=O)[C@@H]1CC1c1cc(-c2ccc(C(F)(F)F)cc2)cc2c1=NC(C)N=2 (mixture of isomers)    6.5

1. CNS(=O)(=O)CCc1cc(-c2ccc(C(F)(F)F)cc2)cc2cn(C)nc12
2. CNC(=O)[C@@H]1CC1c1cc(OC2CC3(C2)CC(F)(F)C3)cc2cn(C)nc12 (mixture of isomers)
3. Cn1cc2cc(Oc3cc(F)c(F)c(F)c3)cc([C@@H]3C[C@H]3C(=O)N3C[C@@H]4C[C@H]3C[C@@H]4O)c2n1 (single isomer, unassigned)
4. [2H]C([2H])([2H])NC(=O)[C@@H]1C[C@H]1c1cc(Oc2ccc(C(F)(F)F)cc2)cc2cn(C)nc12 (single isomer, unassigned)
5. Cn1cc2cc(Oc3ccc(C(F)(F)F)cn3)cc([C@@H]3C[C@H]3C(=O)N3CC(O)C3)c2n1 (single isomer, unassigned) [Example 88a]
rank_up(items): orders items by reported TEAD4 ΔTm in ascending numerical order. Provide your answer as the labels ordered per the instruction.
5, 2, 4, 3, 1

###

- SYSTEM: UniProt:Q15562
- MEASUREMENT_PROTOCOL: Thermal shift assay TEAD2
- Assay type: binding
READOUT_LABEL: TEAD2 ΔTm (°C)

a. Cn1cc2cc(Oc3ccc(C(F)(F)F)cc3)cc([C@@H]3C[C@H]3C(=O)N3CC(C)(O)C3)c2n1 (single isomer, unassigned) [Example 60]
b. CNC(=O)[C@@H]1CC1c1cc(-c2ccc(C(F)(F)F)cc2)cc2c1cnn2C (mixture of isomers) [Example 24]
// compare measured TEAD2 ΔTm between a and b ; output the lower one Returns: label corresponding to the selected item.
b

1. Cn1cc2cc(Oc3ccc(C(F)(F)F)cc3)cc(C3C[C@H]3C(=O)N3CC4CC3[C@H](O)[C@H]4O)c2n1 (single isomer, unassigned) [Example 106]
2. Cn1cc2cc(Oc3ccc(C(F)(F)F)cc3)cc(C3C[C@H]3C(=O)N3CCC[C@H]3C#N)c2n1 (single isomer, unassigned) [Example 73]
3. Cn1cc2cc(Oc3ccc(C(F)(F)F)cc3)cc(C3C[C@H]3C(=O)N3CCP(C)(=O)CC3)c2n1 (single isomer, unassigned) [Example 111]
Hello, I need these entries ordered by TEAD2 ΔTm, highest reading first. Thanks! Please, when replying, give the labels in the order that was requested.
2, 1, 3
(2: 15.1 °C, 1: 9.9 °C, 3: 3.7 °C)

A. C[C@@H](CO)NC(=O)[C@@H]1CC1c1cc(Oc2ccc(C(F)(F)F)cc2)cc2cn(C)nc12 (single isomer, unassigned) [Example 54]
B. Cn1cc2cc(Oc3ccc(C(F)(F)F)cc3)cc([C@@H]3C[C@H]3C(=O)NCC#N)c2n1 (single isomer, unassigned) [Example 66]
Between A and B , which one shows the smaller TEAD2 ΔTm number? Reply briefly: the label of your chosen item.
A
(A: 9.8 °C, B: 14.7 °C)

###

- SYSTEM: TEAD2 (Homo sapiens, UniProt Q15562)
- Sequence (Q15562 whole entry, species assumed): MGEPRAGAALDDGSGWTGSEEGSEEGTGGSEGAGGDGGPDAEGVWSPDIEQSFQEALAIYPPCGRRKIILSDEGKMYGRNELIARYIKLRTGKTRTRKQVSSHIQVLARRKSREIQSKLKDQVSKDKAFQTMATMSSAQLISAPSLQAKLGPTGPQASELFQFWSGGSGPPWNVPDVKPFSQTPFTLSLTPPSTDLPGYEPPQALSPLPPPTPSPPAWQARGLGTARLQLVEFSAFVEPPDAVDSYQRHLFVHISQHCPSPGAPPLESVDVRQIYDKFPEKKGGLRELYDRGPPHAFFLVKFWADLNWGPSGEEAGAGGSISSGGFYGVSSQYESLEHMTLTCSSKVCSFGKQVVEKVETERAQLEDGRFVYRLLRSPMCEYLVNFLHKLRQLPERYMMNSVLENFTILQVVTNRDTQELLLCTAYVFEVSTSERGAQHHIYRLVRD
- MEASUREMENT_PROTOCOL: Thermal shift assay TEAD2
- Type: binding
- Protocol: Example B: Thermal Shift Assay 1) Prepare a fresh dilution of Protein Thermal Shift™ Dye (Applied Biosystems, 1000×) to 8× by […]. 2) To ensure the same DMSO concentration, the compounds were diluted as follows: Prepare 10 mM stock solution of compounds; The final DMSO concentration was 0.1% 10 μM: Diluting stock solution to 100 μM by using PBS. 1 μM: Diluting stock solution to 1 mM by using DMSO, then dilute to 10 μM by using PBS. […]
READOUT_LABEL: TEAD2 ΔTm (°C)

Examples with answers:
CC(C)NC(=O)[C@@H]1CC1c1cc(Oc2ccc(C(F)(F)F)cc2)cc2cn(C)nc12 (mixture of isomers) [Example 56]    9
Cn1cc2cc(Oc3ccc(F)c(F)c3)cc([C@@H]3C[C@H]3C(=O)N3CC(O)C3)c2n1 (single isomer, unassigned) [Example 90a]    2.6
Cn1cc2cc(Oc3ccc(C(F)(F)F)cc3)cc(C3C[C@H]3C(=O)N3C4COCC3CC(O)C4)c2n1 (single isomer, unassigned) [Example 116a]    6.1

1. C[C@H](CO)NC(=O)[C@@H]1CC1c1cc(Oc2ccc(C(F)(F)F)cc2)cc2cn(C)nc12 (single isomer, unassigned) [Example 55]
2. Cc1cn2cc(Oc3ccc(C(F)(F)F)cc3)cc([C@H]3C[C@@H]3C(=O)N3CC(O)C3)c2n1 (single isomer, unassigned) [Example 85b]
3. CNC(=O)[C@@H]1CC1c1cc(-c2ccc(C(F)(F)F)cc2)cc2cccnc12 (mixture of isomers) [Example 38]
hey, can you rank those compounds up there by TEAD2 ΔTm? biggest number first please # answer = labels listed in requested order
1, 2, 3
